molecular target: Sigma non-opioid intracellular receptor 1 (Homo sapiens, UniProt Q99720); experiment: Displacement of [3H](+)-pentazocine from human sigma 1 receptor transfected in HEK293 cells after 120 mins by liquid scintillation counting
Sequence (Q99720 whole entry): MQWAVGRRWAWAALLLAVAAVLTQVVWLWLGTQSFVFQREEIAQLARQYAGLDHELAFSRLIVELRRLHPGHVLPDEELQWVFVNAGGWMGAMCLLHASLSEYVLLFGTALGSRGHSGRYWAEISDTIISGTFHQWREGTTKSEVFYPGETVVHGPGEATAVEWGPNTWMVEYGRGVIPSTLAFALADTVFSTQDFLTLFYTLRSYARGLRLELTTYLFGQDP
Measured Ki by item
metric: Ki (nM)

line_notation=Fc1ccc(Cn2cc(NCCN3CCOCC3)nn2)cc1 metric=Ki qual== measured_result=662
line_notation=CCN(CC)CCNc1cn(Cc2ccccc2)nn1 metric=Ki qual== measured_result=701
line_notation=CS(=O)(=O)N(CCN1CCOCC1)c1cn(-c2ccc(Cl)c(Cl)c2)nn1 metric=Ki qual=> measured_result=1000
line_notation=CC(=O)N(CCN1CCOCC1)c1cn(Cc2ccc(Cl)c(Cl)c2)nn1 metric=Ki qual== measured_result=459
line_notation=c1ccc(Cn2cc(NCCN3CCOCC3)nn2)cc1 metric=Ki qual=> measured_result=1000
line_notation=Clc1ccc(-n2ccc(NCCN3CCCCC3)n2)cc1Cl metric=Ki qual== measured_result=10
line_notation=Fc1ccc(-n2cc(NCCN3CCOCC3)nn2)cc1F metric=Ki qual=> measured_result=1000
line_notation=CN1CCN(CCNc2cn(Cc3ccccc3)nn2)CC1 metric=Ki qual== measured_result=9620
line_notation=c1c(NCCN2CCOCC2)nnn1C1CCCCC1 metric=Ki qual=> measured_result=1000
line_notation=Fc1cccc(-n2cc(NCCN3CCOCC3)nn2)c1 metric=Ki qual== measured_result=781
line_notation=Clc1ccc(Cn2cc(NCCCN3CCOCC3)nn2)cc1Cl metric=Ki qual== measured_result=508
line_notation=CCCN(CCN1CCOCC1)c1cn(-c2ccc(Cl)c(Cl)c2)nn1 metric=Ki qual== measured_result=451

----------
molecular target: Voltage-gated inwardly rectifying potassium channel KCNH2 (Homo sapiens)
Sequence (Q12809 whole entry): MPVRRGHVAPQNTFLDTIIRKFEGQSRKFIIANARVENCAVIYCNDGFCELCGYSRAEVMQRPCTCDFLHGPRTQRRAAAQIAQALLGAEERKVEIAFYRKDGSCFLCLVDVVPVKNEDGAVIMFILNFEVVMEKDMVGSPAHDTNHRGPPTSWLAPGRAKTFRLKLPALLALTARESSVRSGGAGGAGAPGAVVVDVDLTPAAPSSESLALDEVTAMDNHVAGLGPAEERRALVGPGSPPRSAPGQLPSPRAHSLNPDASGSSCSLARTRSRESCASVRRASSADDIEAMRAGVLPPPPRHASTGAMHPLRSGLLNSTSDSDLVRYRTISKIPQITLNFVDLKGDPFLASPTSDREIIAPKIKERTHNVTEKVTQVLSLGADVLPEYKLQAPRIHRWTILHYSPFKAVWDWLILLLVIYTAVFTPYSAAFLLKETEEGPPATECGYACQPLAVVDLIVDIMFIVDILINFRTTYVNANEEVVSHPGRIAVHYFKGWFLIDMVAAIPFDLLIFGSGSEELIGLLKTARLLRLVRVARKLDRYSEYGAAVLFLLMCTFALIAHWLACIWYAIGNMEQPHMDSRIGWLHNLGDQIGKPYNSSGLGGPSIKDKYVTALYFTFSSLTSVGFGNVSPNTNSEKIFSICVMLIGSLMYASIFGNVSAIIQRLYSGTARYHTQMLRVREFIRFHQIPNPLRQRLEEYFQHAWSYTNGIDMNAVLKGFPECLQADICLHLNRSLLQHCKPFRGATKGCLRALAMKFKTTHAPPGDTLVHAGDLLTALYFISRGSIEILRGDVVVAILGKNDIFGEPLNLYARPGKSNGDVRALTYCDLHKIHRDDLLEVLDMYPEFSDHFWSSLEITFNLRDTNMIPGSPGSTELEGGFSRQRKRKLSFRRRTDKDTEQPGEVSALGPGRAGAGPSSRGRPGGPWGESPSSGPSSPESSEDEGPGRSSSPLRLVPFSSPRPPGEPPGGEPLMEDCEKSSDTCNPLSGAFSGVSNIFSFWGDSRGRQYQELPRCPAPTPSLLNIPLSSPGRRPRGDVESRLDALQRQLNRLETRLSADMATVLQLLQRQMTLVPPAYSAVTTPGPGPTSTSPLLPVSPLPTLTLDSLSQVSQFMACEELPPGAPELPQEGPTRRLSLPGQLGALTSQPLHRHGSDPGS
pIC50: −log10 of the molar value.
Measured pIC50 by item
metric: pIC50

line_notation=Clc1ccc(-n2cc(NCCN3CCOCC3)nn2)cc1Cl metric=pIC50 qual=< measured_result=5.00
line_notation=Fc1cccc(Cn2cc(NCCN3CCCCC3)nn2)c1 metric=pIC50 qual=< measured_result=5.00
line_notation=c1c(NCCN2CCOCC2)nnn1C12CC3CC(CC(C3)C1)C2 metric=pIC50 qual=< measured_result=5.00
line_notation=Fc1ccc(-n2cc(NCCN3CCC(F)(F)CC3)nn2)cc1F metric=pIC50 qual=< measured_result=5.00
line_notation=Fc1cccc(-n2cc(NCCN3CCCCC3)nn2)c1 metric=pIC50 qual== measured_result=5.28
line_notation=Clc1ccc(-n2cc(NCCN3CCCCC3)nn2)cc1Cl metric=pIC50 qual== measured_result=5.77
line_notation=Fc1ccc(-n2cc(NCCN3CCCCC3)nn2)cc1F metric=pIC50 qual== measured_result=5.66
line_notation=Fc1ccc(Cn2cc(NCCN3CCC(F)(F)CC3)nn2)cc1F metric=pIC50 qual=< measured_result=5.00
line_notation=Clc1ccc(-n2cc(NCCN3CCCCC3)nn2)cc1 metric=pIC50 qual== measured_result=5.51

----------
species: Cavia porcellus; experiment: Displacement of [3H]-DTG from sigma 2 receptor in guinea pig brain membrane at 1 uM after 120 mins by liquid scintillation counting; type: cell membranes
metric: inhibition (%)

line_notation=Fc1ccc(-n2cc(NCCN3CCCCC3)nn2)c(F)c1 metric=inhibition measured_result=53
line_notation=Clc1ccc(-n2cc(NCCN3CCCCC3)nn2)cc1 metric=inhibition measured_result=65
line_notation=Clc1ccc(Cn2cc(NCCN3CCCOCC3)nn2)cc1Cl metric=inhibition measured_result=66
line_notation=Fc1ccc(-n2cc(NCCN3CCC(F)(F)CC3)nn2)cc1F metric=inhibition measured_result=29

----------
assay: Lipophilicity, log P of the compound; assay type: physicochemical; conditions: octanol/water
Measured logP by item
metric: logP

line_notation=Clc1ccc(-n2cc(NCCN3CCOCC3)nn2)cc1Cl measured_result=2.9
line_notation=Clc1ccc(Cn2cc(NCCN3CCOCC3)nn2)cc1Cl measured_result=2.4

----------
Measured inhibition by item
species: Cavia porcellus; assay: Displacement of [3H]-DTG from sigma 2 receptor in guinea pig brain membrane at 1 uM after 120 mins by liquid scintillation counting; format: cell membranes
metric: inhibition (%)

line_notation=c1ccc(Cn2cc(NCCN3CCCCCC3)nn2)cc1 result_unit=% measured_result=75
line_notation=Fc1cccc(Cn2cc(NCCN3CCCCC3)nn2)c1 result_unit=% measured_result=43
line_notation=Clc1ccc(-n2cc(NCCN3CCCCC3)nn2)c(Cl)c1 result_unit=% measured_result=62
line_notation=Fc1cccc(-n2cc(NCCN3CCCCCC3)nn2)c1 result_unit=% measured_result=86
line_notation=Fc1cccc(-n2cc(NCCN3CCCOCC3)nn2)c1 result_unit=% measured_result=47
line_notation=Clc1ccc(Cn2cc(NCCN3CCCCCC3)nn2)cc1Cl result_unit=% measured_result=87
line_notation=Fc1cccc(-n2cc(NCCN3CCCCC3)nn2)c1 result_unit=% measured_result=59
line_notation=Fc1ccc(-n2cc(NCCN3CCCCC3)nn2)cc1 result_unit=% measured_result=54
line_notation=C[C@@H]1CCC[C@H](C)N1CCNc1cn(Cc2ccc(F)cc2)nn1 result_unit=% measured_result=72
line_notation=Fc1cccc(-n2cc(NCCN3CCN(C4CCCCC4)CC3)nn2)c1 result_unit=% measured_result=74
line_notation=Fc1ccc(Cn2cc(NCCN3CCCCC3)nn2)cc1 result_unit=% measured_result=66
line_notation=Fc1ccc(-n2cc(NCCN3CCCCC3)nn2)cc1F result_unit=% measured_result=65

----------
experiment: Thermodynamic solubility of the compound in phosphate buffer at pH 7.4; format: physicochemical; details: read-out: Therm_solubility
metric: solubility thermodynamic

line_notation=Clc1ccc(Cn2cc(NCCN3CCOCC3)nn2)cc1Cl measured_result="> 4000 µg/mL"
line_notation=Clc1ccc(-n2cc(NCCN3CCOCC3)nn2)cc1Cl measured_result="170 µg/mL"

----------
assay: Intrinsic clearance in human liver microsomes assessed as per mg of protein at 10 uM; format: ADME; details: read-out: CLH
metric: microsomal CLint at 10 µM (µL/min/mg)

line_notation=Cc1cc(OCCN2CCOCC2)nn1-c1ccc2ccccc2c1 metric="microsomal CLint at 10 µM" result_unit=µL/min/mg measured_result=3
line_notation=Clc1ccc(Cn2cc(NCCN3CCOCC3)nn2)cc1Cl metric="microsomal CLint at 10 µM" result_unit=µL/min/mg measured_result=2.9
line_notation=Clc1ccc(-n2cc(NCCN3CCOCC3)nn2)cc1Cl metric="microsomal CLint at 10 µM" result_unit=µL/min/mg measured_result=0.8

----------
assay: Displacement of [3H]-DTG from sigma 2 receptor in guinea pig brain membrane after 120 mins by liquid scintillation counting; format: cell membranes, Cavia porcellus
// classify: if (Ki < 300 nM) Fulfilled else Not fulfilled

line_notation=c1ccc(Cn2cc(NCCN3CCCCC3)nn2)cc1 assigned_category="Not fulfilled"
line_notation=Clc1ccc(Cn2cc(NCCN3CCCCC3)nn2)cc1Cl assigned_category=Fulfilled
line_notation=Clc1ccc(-n2cc(NCCN3CCCCC3)nn2)cc1Cl assigned_category="Not fulfilled"
line_notation=Cc1cc(OCCN2CCOCC2)nn1-c1ccc2ccccc2c1 assigned_category="Not fulfilled"
line_notation=Clc1ccc(-n2ccc(NCCN3CCCCC3)n2)cc1Cl assigned_category=Fulfilled
line_notation=Clc1ccc(-n2cc(NCCN3CCOCC3)nn2)cc1Cl assigned_category="Not fulfilled"
line_notation=CCN(CCN1CCOCC1)c1cn(-c2ccc(Cl)c(Cl)c2)nn1 assigned_category=Fulfilled
line_notation=Fc1ccc(Cn2cc(NCCN3CCCCC3)nn2)cc1F assigned_category="Not fulfilled"
line_notation=Fc1ccc(Cn2cc(NCCN3CCC(F)(F)CC3)nn2)cc1 assigned_category="Not fulfilled"
line_notation=Fc1ccc(Cn2cc(NCCN3CCC(F)(F)CC3)nn2)cc1F assigned_category="Not fulfilled"
line_notation=CCN(CCN1CCOCC1)c1cn(C23CC4CC(CC(C4)C2)C3)nn1 assigned_category=Fulfilled
line_notation=Clc1ccc(-n2ccc(NCCN3CCOCC3)n2)cc1Cl assigned_category="Not fulfilled"
line_notation=Clc1ccc(Cn2cc(NCCN3CCOCC3)nn2)cc1Cl assigned_category="Not fulfilled"

----------
assay: Dissociation constant, pKa of the compound; assay type: physicochemical
Measured pKa by item
metric: pKa

line_notation=Clc1ccc(-n2cc(NCCN3CCOCC3)nn2)cc1Cl measured_result=6.6
line_notation=Clc1ccc(Cn2cc(NCCN3CCOCC3)nn2)cc1Cl measured_result=6.7

----------
target: Sigma non-opioid intracellular receptor 1 (Homo sapiens); test: Displacement of [3H](+)-pentazocine from human sigma 1 receptor transfected in HEK293 cells after 120 mins by liquid scintillation counting
metric: Ki (nM)

line_notation=Fc1ccc(Cn2cc(NCCN3CCOCC3)nn2)cc1F measured_result=878
line_notation=CC(=O)N(CCN1CCOCC1)c1cn(-c2ccc(Cl)c(Cl)c2)nn1 measured_result=388
line_notation=CC(=O)N1CCN(CCNc2cn(Cc3ccc(Cl)c(Cl)c3)nn2)CC1 measured_result=818
